System: cynomolgus CD45 ectodomain
Sequence (as listed by the source): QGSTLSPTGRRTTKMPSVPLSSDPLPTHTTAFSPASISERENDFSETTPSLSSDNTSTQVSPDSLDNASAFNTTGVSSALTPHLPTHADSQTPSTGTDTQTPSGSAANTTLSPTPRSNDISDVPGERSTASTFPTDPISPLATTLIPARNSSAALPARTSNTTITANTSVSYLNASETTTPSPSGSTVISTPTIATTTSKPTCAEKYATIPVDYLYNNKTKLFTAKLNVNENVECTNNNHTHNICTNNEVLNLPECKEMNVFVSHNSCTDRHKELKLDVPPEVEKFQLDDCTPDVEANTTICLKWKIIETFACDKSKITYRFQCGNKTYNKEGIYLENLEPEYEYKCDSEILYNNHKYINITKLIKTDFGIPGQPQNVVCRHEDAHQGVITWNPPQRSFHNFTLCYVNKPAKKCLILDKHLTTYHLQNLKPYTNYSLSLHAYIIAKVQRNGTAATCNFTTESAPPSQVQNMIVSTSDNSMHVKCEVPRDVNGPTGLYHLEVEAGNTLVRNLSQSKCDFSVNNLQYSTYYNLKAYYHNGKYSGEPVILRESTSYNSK
Test: Biolayer interferometry (BLI, Octet) binding of immobilized IgG to purified CD45 ectodomain
Settings: Table 2, Cynomolgus CD45
Kdis overview
Your answer should be a plain number; it is taken to be in s⁻¹.

molecule="Ab5: variant of Ab4 with asparagine to serine substitution in CDR-L1; VH SEQ ID NO:41, VL SEQ ID NO:45 (antibody, V domains shown) VH: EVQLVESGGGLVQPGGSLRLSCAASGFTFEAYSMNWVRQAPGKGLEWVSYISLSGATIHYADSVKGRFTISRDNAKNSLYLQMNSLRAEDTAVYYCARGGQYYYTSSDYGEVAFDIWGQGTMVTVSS VL: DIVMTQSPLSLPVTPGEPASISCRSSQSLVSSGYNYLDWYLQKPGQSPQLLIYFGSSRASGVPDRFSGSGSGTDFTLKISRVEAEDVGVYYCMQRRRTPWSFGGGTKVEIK" measured_quantity=Kdis unit_label=s⁻¹ readout_number=0.000164
molecule="Ab7: variant of Ab3 with asparagine to serine substitution in CDR-L1; VH SEQ ID NO:61, VL SEQ ID NO:65 (antibody, V domains shown) VH: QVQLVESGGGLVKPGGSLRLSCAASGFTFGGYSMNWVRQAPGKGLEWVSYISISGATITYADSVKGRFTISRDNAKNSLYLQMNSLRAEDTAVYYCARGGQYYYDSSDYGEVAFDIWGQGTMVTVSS VL: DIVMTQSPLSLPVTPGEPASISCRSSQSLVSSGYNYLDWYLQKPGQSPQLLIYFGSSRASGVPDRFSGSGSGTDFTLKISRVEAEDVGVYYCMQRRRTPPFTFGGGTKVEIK" measured_quantity=Kdis unit_label=s⁻¹ readout_number=0.000537

Now consider the entry below.
(Q) State its Kdis for this molecule: Ab2: affinity matured human anti-CD45 IgG derived from Ab1; VH SEQ ID NO:11, VL SEQ ID NO:15 (antibody, V domains shown) VH: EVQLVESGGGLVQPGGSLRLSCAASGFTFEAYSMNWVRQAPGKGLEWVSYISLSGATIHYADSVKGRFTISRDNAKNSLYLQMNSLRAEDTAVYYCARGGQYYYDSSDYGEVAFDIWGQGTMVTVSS VL: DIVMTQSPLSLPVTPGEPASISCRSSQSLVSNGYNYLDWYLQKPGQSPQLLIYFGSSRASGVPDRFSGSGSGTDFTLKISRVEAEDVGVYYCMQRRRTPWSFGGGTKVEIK
(A) 0.000129

Data origin, for the record: patent US12209135B2
